method: Compound solubility determination in FaSSIF and FeSSIF
Format: physicochemical
measurement parameters: thermodynamic from solid; FeSSIF (Fed State Simulated Intestinal Fluid), pH 5.0 buffer; read-out: Solubility in FeSSIF
property: solubility at 24 h

Examples with answers:
molecule: Cc1[nH]c(CO)c(Cl)c(=O)c1-c1ccc(Oc2cccc(C(F)(F)F)c2)cc1
solubility at 24 h: 10 to 50 µg/mL
//
molecule: Cc1[nH]c(CO)c(Cl)c(=O)c1-c1ccc(Oc2ccc(OC(F)(F)F)cc2)cc1
solubility at 24 h: 10 to 50 µg/mL
//
molecule: CON=Cc1[nH]c(C)c(Cl)c(=O)c1-c1ccc(Oc2ccc(OC(F)(F)F)cc2)cc1 (single isomer, unassigned)
solubility at 24 h: 10 to 50 µg/mL
//
molecule: Cc1[nH]c(/C=N/O)c(-c2ccc(Oc3ccc(OC(F)(F)F)cc3)cc2)c(=O)c1Cl
solubility at 24 h: 10 to 50 µg/mL
//
molecule: Cc1[nH]c(CCCO)c(-c2ccc(Oc3ccc(OC(F)(F)F)cc3)cc2)c(=O)c1Cl
solubility at 24 h: 10 to 50 µg/mL
//
molecule: Cc1[nH]c(CO)c(-c2ccc(Oc3ccc(OC(F)(F)F)cc3)cc2)c(=O)c1Cl
solubility at 24 h: 5 to 10 µg/mL
//
molecule: Cc1[nH]c(C=NO)c(Cl)c(=O)c1-c1ccc(Oc2ccc(OC(F)(F)F)cc2)cc1 (single isomer, unassigned)
solubility at 24 h: 5 to 10 µg/mL

We now examine a further molecule.
Look up solubility at 24 h: `Cc1[nH]c(CO)c(-c2ccc(Oc3cccc(C(F)(F)F)c3)cc2)c(=O)c1Cl`
1 to 5 µg/mL
